Target: UniProt Q9NR96
Sequence (Q9NR96 26-1032): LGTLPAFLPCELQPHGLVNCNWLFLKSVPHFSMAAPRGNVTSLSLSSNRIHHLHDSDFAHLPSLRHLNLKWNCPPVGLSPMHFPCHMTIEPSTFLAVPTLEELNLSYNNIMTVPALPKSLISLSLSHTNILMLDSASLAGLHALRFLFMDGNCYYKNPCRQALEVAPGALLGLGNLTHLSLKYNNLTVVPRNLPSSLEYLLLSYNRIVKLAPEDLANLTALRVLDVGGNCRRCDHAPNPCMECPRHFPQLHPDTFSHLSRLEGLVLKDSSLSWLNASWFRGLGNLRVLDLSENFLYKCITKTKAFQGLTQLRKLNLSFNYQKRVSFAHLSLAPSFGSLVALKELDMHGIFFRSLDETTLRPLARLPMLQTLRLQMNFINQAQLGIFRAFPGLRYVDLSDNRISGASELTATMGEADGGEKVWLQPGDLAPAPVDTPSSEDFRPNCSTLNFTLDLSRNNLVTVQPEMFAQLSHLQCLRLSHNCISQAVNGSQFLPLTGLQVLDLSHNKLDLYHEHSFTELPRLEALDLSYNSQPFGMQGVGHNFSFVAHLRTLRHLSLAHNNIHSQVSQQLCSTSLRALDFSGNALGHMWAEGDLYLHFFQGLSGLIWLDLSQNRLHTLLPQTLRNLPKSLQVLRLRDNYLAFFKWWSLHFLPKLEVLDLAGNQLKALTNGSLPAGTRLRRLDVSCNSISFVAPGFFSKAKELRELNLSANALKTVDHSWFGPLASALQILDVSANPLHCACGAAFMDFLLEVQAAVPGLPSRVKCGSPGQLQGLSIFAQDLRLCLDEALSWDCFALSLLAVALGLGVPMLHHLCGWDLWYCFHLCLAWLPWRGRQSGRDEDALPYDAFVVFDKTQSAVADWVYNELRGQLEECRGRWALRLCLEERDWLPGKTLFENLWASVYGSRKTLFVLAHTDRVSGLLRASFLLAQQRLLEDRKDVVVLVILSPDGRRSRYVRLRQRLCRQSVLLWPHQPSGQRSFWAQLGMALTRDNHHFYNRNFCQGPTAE
Experiment: TLR9 inhibition reporter assay (HEK-Blue cells, SEAP reporter, ODN2006 stimulation)
Conditions: HEK-Blue cells overexpressing human TLR9, ODN2006 5 nM
Source text: TLR7/8/9 Inhibition Reporter Assays HEK-Blue™-cells (Invivogen) overexpressing human TLR7, TLR8 or TLR9 receptors were used for screening inhibitors of these receptors using an inducible SEAP (secreted embryonic alkaline phosphatase) reporter gene under the control of the IFN-β minimal promoter fused to five NF-κB and AP-1-binding sites. […]
Please provide measured IC50 for the entries that follow.
One number for each entry, in nM.

{"columns": ["COMPOUND", "IC50 / nM"],
 "data": [
  ["CCC(CO)NCC(=O)N1CCC(c2ccc3[nH]c(-c4ccc(OC)c(OC)c4)c(C(C)C)c3c2)CC1 (stereo not drawn) [Example 233]", 877]
]}

Read the next record carefully.
Ask: Recorded IC50 of COc1ccc(-c2[nH]c3ccc(C4CCN(Cc5ccc(N6CCCC6)cc5)CC4)cc3c2C)cc1OC [Example 46] , please.
Reply: 746
